molecular target: NAD(P)H dehydrogenase [quinone] 1 (Mus musculus); experiment: Induction of quinone reductase 1 activity in mouse Hepa-1c1c7 cells assessed as cell survival at 50 uM by MTT assay relative to control; assay type: cell-based
# Lookup of reported Survival keyed by entry
# unit: % | format: bare number

What value of measured Survival is listed for CS(=O)(=O)N1Cc2[nH]c3ccccc3c2C[C@H]1C(=O)O ?
96.7

What value of measured Survival is listed for CCCCCNC(=O)N1Cc2[nH]c3ccccc3c2C[C@@H]1C(=O)OC ?
12.7

What value of measured Survival is listed for O=C(O)[C@@H]1Cc2c([nH]c3ccccc23)CN1Cc1ccccc1 ?
105

What value of measured Survival is listed for O=C(O)[C@H]1Cc2c([nH]c3ccccc23)CN1CC1CC1 ?
102

What value of measured Survival is listed for O=C(O)[C@@H]1Cc2c([nH]c3ccccc23)CN1S(=O)(=O)c1ccc(Br)cc1 ?
97.8

What value of measured Survival is listed for CS(=O)(=O)N1Cc2[nH]c3ccccc3c2C[C@@H]1C(=O)O ?
80.6

What value of measured Survival is listed for O=C(O)[C@H]1Cc2c([nH]c3ccccc23)CN1Cc1ccc(O)cc1 ?
91.2

What value of measured Survival is listed for C=CCOC(=O)N1Cc2[nH]c3ccccc3c2C[C@@H]1C(=O)O ?
93.8

What value of measured Survival is listed for COC(=O)[C@@H]1Cc2c([nH]c3ccccc23)CN1C(=O)NC1CCCCC1 ?
71.5

What value of measured Survival is listed for COC(=O)[C@H]1Cc2c([nH]c3ccccc23)CN1C(=O)NC(C)C ?
77

###

target: UniProt:Q64669; experiment: Induction of quinone reductase 1 in mouse Hepa 1c1c7 cells assessed as concentration of compound required to double enzyme activity by MTT assay; format: cell-based
Sequence (Q64669 whole entry): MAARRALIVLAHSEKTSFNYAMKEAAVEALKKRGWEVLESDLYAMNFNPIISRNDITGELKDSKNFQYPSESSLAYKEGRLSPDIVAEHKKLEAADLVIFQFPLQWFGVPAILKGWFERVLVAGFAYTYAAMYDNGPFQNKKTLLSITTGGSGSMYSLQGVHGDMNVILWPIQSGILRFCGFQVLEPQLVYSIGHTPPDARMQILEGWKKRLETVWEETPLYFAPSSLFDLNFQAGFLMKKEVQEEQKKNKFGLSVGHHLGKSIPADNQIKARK
Label Yes when CD < 30 µM; otherwise No.

Take a look at these entries with their results.
COC(=O)[C@@H]1Cc2c([nH]c3ccccc23)CN1CC1CC1 | No
COC(=O)[C@H]1Cc2c([nH]c3ccccc23)CN1C(=O)NC(C)C | Yes
O=C(O)[C@@H]1Cc2c([nH]c3ccccc23)CN1Cc1ccccc1 | Yes
C=CCOC(=O)N1Cc2[nH]c3ccccc3c2C[C@H]1C(=O)O | Yes
C#CCN1Cc2[nH]c3ccccc3c2C[C@H]1C(=O)O | Yes

Is CD strictly under 30 µM for the entry C#CCN1Cc2[nH]c3ccccc3c2C[C@@H]1C(=O)OC ?
No

Is CD strictly under 30 µM for the entry CCCCCNC(=O)N1Cc2[nH]c3ccccc3c2C[C@H]1C(=O)OC ?
Yes

Is CD strictly under 30 µM for the entry C=CCOC(=O)N1Cc2[nH]c3ccccc3c2C[C@@H]1C(=O)OC ?
Yes

Is CD strictly under 30 µM for the entry CCCCCNC(=O)N1Cc2[nH]c3ccccc3c2C[C@@H]1C(=O)OC ?
Yes

Is CD strictly under 30 µM for the entry COC(=O)[C@@H]1Cc2c([nH]c3ccccc23)CN1C(=O)NC(C)C ?
Yes

Is CD strictly under 30 µM for the entry O=C(O)[C@@H]1Cc2c([nH]c3ccccc23)CN1CC1CC1 ?
Yes

###

target: UniProtKB P29477; assay: Inhibition of iNOS-mediated nitric oxide production in LPS-stimulated mouse RAW 264.7 cells at 50 uM pretreated 15 mins before LPS challenge measured after 20 hrs relative to control; type: cell-based
Sequence (P29477 whole entry): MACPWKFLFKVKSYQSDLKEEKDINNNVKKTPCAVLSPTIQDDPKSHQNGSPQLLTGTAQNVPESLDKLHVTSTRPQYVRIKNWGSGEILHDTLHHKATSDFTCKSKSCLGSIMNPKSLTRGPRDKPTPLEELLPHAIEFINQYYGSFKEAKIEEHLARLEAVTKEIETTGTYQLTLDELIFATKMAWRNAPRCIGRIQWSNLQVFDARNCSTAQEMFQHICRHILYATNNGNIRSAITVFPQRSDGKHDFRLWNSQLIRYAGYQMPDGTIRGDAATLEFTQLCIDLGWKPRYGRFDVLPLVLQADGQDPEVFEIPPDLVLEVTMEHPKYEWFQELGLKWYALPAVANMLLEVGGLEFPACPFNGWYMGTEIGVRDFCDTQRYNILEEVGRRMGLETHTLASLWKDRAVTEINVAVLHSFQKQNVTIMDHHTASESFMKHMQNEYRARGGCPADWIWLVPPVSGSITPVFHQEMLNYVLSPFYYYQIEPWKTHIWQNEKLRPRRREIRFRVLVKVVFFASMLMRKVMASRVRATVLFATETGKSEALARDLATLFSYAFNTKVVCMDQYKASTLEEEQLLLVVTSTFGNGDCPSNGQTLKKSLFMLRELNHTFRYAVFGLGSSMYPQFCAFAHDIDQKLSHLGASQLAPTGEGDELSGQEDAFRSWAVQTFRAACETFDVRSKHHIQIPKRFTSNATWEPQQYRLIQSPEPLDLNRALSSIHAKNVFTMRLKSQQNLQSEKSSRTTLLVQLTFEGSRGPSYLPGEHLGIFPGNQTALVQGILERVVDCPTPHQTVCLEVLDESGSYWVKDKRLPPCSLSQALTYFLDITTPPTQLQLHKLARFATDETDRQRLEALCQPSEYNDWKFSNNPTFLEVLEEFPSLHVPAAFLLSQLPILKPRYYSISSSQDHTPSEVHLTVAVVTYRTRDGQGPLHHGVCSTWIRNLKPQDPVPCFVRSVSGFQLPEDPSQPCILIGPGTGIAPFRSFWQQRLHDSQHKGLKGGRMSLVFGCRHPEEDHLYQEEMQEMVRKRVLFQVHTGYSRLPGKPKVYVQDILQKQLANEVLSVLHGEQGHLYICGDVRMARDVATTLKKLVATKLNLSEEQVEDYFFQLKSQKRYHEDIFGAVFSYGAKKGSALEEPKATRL
Lab note: anything with inhibition at or over 10% counts as condition met; the rest go in condition not met.

Take a look at these entries with their results.
COC(=O)[C@@H]1Cc2c([nH]c3ccccc23)CN1S(C)(=O)=O | condition met
C#CCN1Cc2[nH]c3ccccc3c2C[C@H]1C(=O)O | condition not met
COC(=O)[C@H]1Cc2c([nH]c3ccccc23)CN1C(=O)NC12CC3CC(CC(C3)C1)C2 | condition met

# evaluate next
inhibition >= 10% for COC(=O)[C@@H]1Cc2c([nH]c3ccccc23)CN1Cc1ccc(O)cc1 ?
condition met
